Can you tell me IC50 for the items I'm about to list?
system.name: HIV-1 integrase (Human immunodeficiency virus type 1 group M subtype B)
Construct: Strand Transfer Catalyzed by Recombinant Integrase
method: HIV integrase assay: strand transfer catalyzed by recombinant integrase
condition.set: inhibition of strand transfer activity
Answer format reminder: number followed by unit.

Query (compound): C=CCCn1c2c(c(=O)c(O)c1C(C)C=C)C(=O)N(Cc1ccc(F)cc1)CC2 (stereo not shown) [Example 3] ; field requested: IC50
100 nM

Would you kindly share the measured IC50 for CC1CCCCn2c3c(c(=O)c(O)c21)C(=O)N(Cc1ccc(F)cc1)CC3 (stereo not shown) [Example 4] ?
120 nM

Please look up its IC50: O=C1c2c(occ(O)c2=O)CCN1Cc1ccc(F)cc1 [Example 1]
3200 nM

Looking for the measured IC50 of C=CCc1c(O)c(=O)c2c(n1C)CCN(Cc1ccc(F)cc1)C2=O [Example 2] , can you help?
100 nM

Ref: patent US20120220571A1
